System: SK-MEL-28 melanoma
assayOverview: NCI-60 one-dose screen, 48 h (100 = growth as untreated, 0 = no growth, -100 = all killed)
measurementContext: 10 µM unless noted
Compounds without any hit were thinned out: in the full panel of roughly 83,000, 20% have a hit.
Recorded growth values for a group of compounds are listed next.
Lab book: enter the figure in %, no units written.

1) Cc1cccc2sc(/N=C(\N)C(Cl)(Cl)Cl)nc12 :: 112
2) COc1cc(/C=C/C(=O)c2ccc(C(F)(F)F)cc2)ccc1Oc1nc(NCCO)nc(N2CCOCC2)n1 :: 96.1
3) Cc1sc2c(c1C)c(=O)nc1c(-c3nc(-c4ccc(F)cc4)no3)n[nH]n12 :: 115
4) c1ccc2c(NCCCn3ccnc3)c3oc4ccccc4c3nc2c1 :: 9.69
5) CC(C)(O)c1cncc(-c2ccc3ncnc(N4CCc5cc(F)c(Cl)cc54)c3c2)c1 :: 24.8
6) COc1cccc(-c2nn(-c3ccccc3)cc2-c2ccnc(N3CCN(C(=O)Nc4ccc(F)cc4)CC3)c2)c1 :: 69.6
7) CC(=O)Oc1ccccc1C(=O)Nc1ccc(C(=O)/C=C/c2ccncc2)cc1 :: 55.8
8) Cc1cc2nc3c4cc(Cl)ccc4n(CC(=O)NCCN(C)C)c3nc2cc1C :: -88.6
9) COc1ccccc1C(=O)CSc1nc(Nc2ccc(S(N)(=O)=O)cc2)c2ccccc2n1 :: 96.8
10) Cn1ccnc1C(=O)/C=C/c1ccc(NC(=O)Nc2ccc(Cl)cc2)cc1 :: 89.9

According to the records, this compound COC(=O)C(Cc1ccccc1)NS(=O)(=O)/N=C1\NC(=O)NC1=C(Cl)Cl (stereo unspecified) displays growth of 102

According to the records, this compound C[C@@H](Nc1c(C#N)cnc2ccc(-c3cnc(N)nc3)cc12)c1ccccc1 displays growth of 20

---

System: SN12C renal
assayOverview: NCI-60 one-dose screen, 48 h (100 = growth as untreated, 0 = no growth, -100 = all killed)
measurementContext: 10 µM unless noted
The panel holds about 83,000 compounds, 20% with a hit somewhere; the sample as a whole holds those more often.
Sorting guide: entries reporting growth beneath 50% go in the true (1) pile, the rest go in the false (0) pile.

Below are worked cases with known answers.
1) O=C(N/N=C/c1ccc([N+](=O)[O-])o1)c1[nH]c2ccc(Br)cc2c1-c1ccccc1 :: true (1)
2) CCOC(=O)c1c(NC(=O)c2cccc(C(F)(F)F)c2)sc2cc(O)ccc12 :: false (0)
3) COc1cc2nc(-c3ccc(C(F)(F)F)cc3)cc(OCCCNCC3CCCO3)c2cc1OC (stereo not drawn) :: true (1)
4) N#Cc1nc(-c2ccccc2)oc1S(=O)(=O)N1CCN(CCc2ccccn2)CC1 :: false (0)
5) Cc1[nH]nc2ncc(C#Cc3cncc(C(=O)Nc4ccc(CN5CCN(C)CC5)c(C(F)(F)F)c4)c3)cc12 :: true (1)

Lab note: confirm whether the reported growth for this compound is below 50%, equality not counting. compound: COc1cc(-c2nc3ccc(-c4nnc(SCC(=O)Nc5ccc(C(=O)/C=C/c6ccc(Cl)cc6)cc5)o4)cc3[nH]2)cc(OC)c1OC
false (0)

Lab note: confirm whether the reported growth for this compound is below 50%, equality not counting. compound: NC(=O)c1c(NC(=O)c2ccc(C3CCCCC3)cc2)sc2c1CCC(=O)C2
true (1)

Provenance of the data: PubChem BioAssay (NCI)
